System: MRSA clinical isolates
Test: Antibiotic susceptibility profile of MRSA clinical isolates (EUCAST breakpoints)
Assay type: cell-based, Staphylococcus aureus
Conditions: MRSA strain 31
quantityName: Drug sensibility profile

Worked set:
molecule	studySystem	experimentalValue
CC(=O)O[C@H]1C[C@@]2(C)[C@@H](C[C@@H](O)[C@H]3[C@@]4(C)CC[C@@H](O)[C@@H](C)[C@@H]4CC[C@@]32C)/C1=C(\CCC=C(C)C)C(=O)O	MRSA clinical isolates	S
CO/N=C(\C(=O)N[C@@H]1C(=O)N2C(C(=O)O)=C(COC(C)=O)CS[C@H]12)c1csc(N)n1	MRSA clinical isolates	R
CNC(C)C1CCC(N)C(OC2C(N)CC(N)C(OC3OCC(C)(O)C(NC)C3O)C2O)O1 (centres unmarked)	MRSA clinical isolates	R
CCCCCCCCCC(=O)N[C@@H](Cc1c[nH]c2ccccc12)C(=O)N[C@H](CC(N)=O)C(=O)N[C@@H](CC(=O)O)C(=O)N[C@@H]1C(=O)NCC(=O)N[C@@H](CCCN)C(=O)N[C@@H](CC(=O)O)C(=O)N[C@H](C)C(=O)N[C@@H](CC(=O)O)C(=O)NCC(=O)N[C@H](CO)C(=O)N[C@@H]([C@H](C)CC(=O)O)C(=O)N[C@@H](CC(=O)c2ccccc2N)C(=O)O[C@@H]1C	MRSA clinical isolates	S
CN(C)c1cc(NC(=O)CNC(C)(C)C)c(O)c2c1C[C@H]1C[C@H]3[C@H](N(C)C)C(O)=C(C(N)=O)C(=O)[C@@]3(O)C(O)=C1C2=O	MRSA clinical isolates	S
CCC[C@@H]1C[C@@H](C(=O)N[C@@H]([C@H]2O[C@H](SC)[C@H](O)[C@@H](O)[C@H]2O)[C@H](C)Cl)N(C)C1	MRSA clinical isolates	R
CC(=O)NC[C@H]1CN(c2ccc(N3CCOCC3)c(F)c2)C(=O)O1	MRSA clinical isolates	S

Shift focus to the following entry.
Specify reported Drug sensibility profile for the molecule shown: CN(C)[C@@H]1C(O)=C(C(N)=O)C(=O)[C@@]2(O)C(O)=C3C(=O)c4c(O)cccc4[C@@](C)(O)[C@H]3C[C@@H]12
S
